Tested on: Murine macrophages (cell line J774)
Protocol: Cytotoxicity to murine macrophages (WST-1)
Type: cell-based
Setup conditions: 24 h, read-out: CC50 Murine Macrophage (Cell Line J774)
Measured quantity: CC50 (µM)

>>> test_value("CC(=O)O[C@H]1CC[C@@]2(C)[C@@H](CC[C@@H]3[C@@H]2CC[C@]2(C)C(=O)[C@@H](Br)C[C@@H]32)C1 [Compound 3]")
1

* * *

System: Bloodstream T. b. brucei (strain 427- cell line 514-1313)
Protocol: Cell viability of bloodstream T. b. brucei (bioluminescent assay)
Assay type: cell-based, Trypanosoma brucei brucei
Setup conditions: Trypanosoma brucei, 24 h, 24 h incubation; read-out: EC50 T. brucei Bloodstream Form
pEC50: −log10 of the molar value.
pEC50 values by entry
Measured quantity: pEC50

>>> test_value("CC(=O)O[C@H]1CC[C@@]2(C)C(=CC[C@@H]3[C@@H]2CC[C@]2(C)C(=O)[C@@H](Br)C[C@@H]32)C1")
5.28
>>> test_value("C[C@]12CC[C@H](O)C[C@@H]1CC[C@@H]1[C@@H]2CC[C@]2(C)C(=O)[C@H](Br)C[C@@H]12 [Compound 1, 16α-bromo-epiandrosterone]")
5.72
>>> test_value("CC(=O)O[C@H]1CC[C@@]2(C)[C@@H](CC[C@@H]3[C@@H]2CC[C@]2(C)C(=O)[C@H](Br)C[C@@H]32)C1")
5.28
>>> test_value("CC1CS(=O)(=O)CCN1/N=C/c1ccc([N+](=O)[O-])o1 (centres unmarked) [Nifurtimox, reference compound]")
5.22
>>> test_value("C[C@]12CC[C@H](O)CC1=CC[C@@H]1[C@@H]2CC[C@]2(C)C(=O)[C@H](Br)C[C@@H]12")
5.12
>>> test_value("CC(=O)O[C@H]1CC[C@@]2(C)C(=CC[C@@H]3[C@@H]2CC[C@]2(C)C(=O)[C@H](Br)C[C@@H]32)C1")
4.74
>>> test_value("CC(=O)O[C@H]1CC[C@@]2(C)[C@@H](CC[C@@H]3[C@@H]2CC[C@]2(C)C(=O)[C@@H](Br)C[C@@H]32)C1")
5.32
